The compounds listed here are annotated with their Population Healthy Nuclei (%).
# Tested on: Fibroblast
# test_method_notes: Multiplex assay against human fibroblast
# Format: toxicity, cell-based
# test_context: 24 h, 10 µM, compound concentration 10 uM, replicate 2

# compound, system_under_test, Population Healthy Nuclei (%)
measured = [
    ("CN1CCC(=C2c3ccccc3CC(=O)c3sccc32)CC1.O=C(O)/C=C/C(=O)O [KETOTIFEN FUMARATE]", "Fibroblast", 66),
    ("CCCS(=O)(=O)c1nc(NC2CC2)cc(-c2ccc3c(ccn3C3CC(C)(C)NC(C)(C)C3)c2)n1", "Fibroblast", 10),
    ("O=C1N/C(=N/c2ccccc2F)S/C1=C\\c1ccc(C(=O)O)cc1", "Fibroblast", 88),
    ("CCc1cccc(CC)c1NC(=O)c1nn(C)c2c1CCc1cnc(Nc3ccc(N4CCN(C)CC4)cc3OC)nc1-2", "Fibroblast", 35),
]

Where do these numbers come from? They come from ChEMBL document CHEMBL4689842.
